Here, each record is paired with measured Relative Potentiation for GABAA1 data.
- Experimental System: GABAA receptor α1β2γ2 (Homo sapiens, UniProt P14867+P18507)
- Construct: expressed in transfected cells; host or cells: Xenopus laevis oocytes injected with cRNA
- Sequence (P14867 28-456): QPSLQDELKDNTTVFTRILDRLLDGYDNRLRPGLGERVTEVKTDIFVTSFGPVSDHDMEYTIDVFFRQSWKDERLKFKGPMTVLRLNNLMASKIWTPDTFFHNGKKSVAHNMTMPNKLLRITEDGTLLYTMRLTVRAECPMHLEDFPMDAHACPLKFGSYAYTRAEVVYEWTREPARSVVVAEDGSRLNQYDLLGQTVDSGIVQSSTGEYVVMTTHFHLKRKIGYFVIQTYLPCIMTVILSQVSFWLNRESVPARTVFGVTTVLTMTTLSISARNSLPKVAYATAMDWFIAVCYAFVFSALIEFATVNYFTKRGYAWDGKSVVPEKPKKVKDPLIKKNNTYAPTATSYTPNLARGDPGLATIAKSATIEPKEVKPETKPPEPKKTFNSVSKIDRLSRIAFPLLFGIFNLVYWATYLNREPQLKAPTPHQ
- Sequence (P47870 25-512 partner limits assumed): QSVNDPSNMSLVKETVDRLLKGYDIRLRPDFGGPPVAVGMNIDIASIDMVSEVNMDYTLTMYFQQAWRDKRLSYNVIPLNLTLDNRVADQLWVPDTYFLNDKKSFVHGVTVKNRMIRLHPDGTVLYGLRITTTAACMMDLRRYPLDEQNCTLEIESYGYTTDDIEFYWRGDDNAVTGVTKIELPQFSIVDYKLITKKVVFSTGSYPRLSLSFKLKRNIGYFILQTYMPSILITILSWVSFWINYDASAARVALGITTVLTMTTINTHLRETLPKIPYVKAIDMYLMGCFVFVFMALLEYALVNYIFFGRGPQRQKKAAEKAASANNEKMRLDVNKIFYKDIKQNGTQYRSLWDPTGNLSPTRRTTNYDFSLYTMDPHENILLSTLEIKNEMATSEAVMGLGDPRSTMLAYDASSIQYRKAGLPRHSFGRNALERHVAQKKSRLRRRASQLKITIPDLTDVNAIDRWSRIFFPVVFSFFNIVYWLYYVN
- Sequence (P18507 40-475): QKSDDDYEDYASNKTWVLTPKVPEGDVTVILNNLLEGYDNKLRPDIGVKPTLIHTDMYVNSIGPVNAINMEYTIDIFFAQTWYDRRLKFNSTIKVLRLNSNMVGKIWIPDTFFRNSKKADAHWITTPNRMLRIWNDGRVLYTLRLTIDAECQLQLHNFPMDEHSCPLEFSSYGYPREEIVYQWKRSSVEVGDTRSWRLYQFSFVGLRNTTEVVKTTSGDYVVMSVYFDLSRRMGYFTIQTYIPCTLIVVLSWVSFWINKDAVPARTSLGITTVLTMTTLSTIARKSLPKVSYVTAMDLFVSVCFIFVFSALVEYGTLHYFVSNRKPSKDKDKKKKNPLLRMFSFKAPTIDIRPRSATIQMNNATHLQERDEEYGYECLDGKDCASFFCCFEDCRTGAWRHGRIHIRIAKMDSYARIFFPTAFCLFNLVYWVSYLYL
- Assay Info: Two-electrode voltage-clamp potentiation of GABA EC10 current in Xenopus oocytes, GABAA1
- Assay type: cell-based
- Condition Label: percentage potentiation of GABA EC10 current divided by that of diazepam
Simply state the number, no unit and no words.

Example entries and their recorded answers appear below.
CCCN1Cc2nc3c(-c4cc(F)cnc4Cl)cccc3c(N)c2C1=O    0.38
N#Cc1ccc(F)cc1-c1cccc2c(N)c3c(nc12)CN(C1CCC1)C3=O    −0.02
Cc1ccc(-c2cccc3c(N)c4c(nc23)CN(C2CC2)C4=O)c(Cl)n1    0.4
COc1cccc(CN2Cc3nc4c(-c5cc(OC)ccc5OC)cccc4c(N)c3C2=O)c1    0.25
COc1ncccc1-c1c(F)ccc2c(N)c3c(nc12)CN([C@H]1CCOC1)C3=O [Example 170]    −0.14
CCN1Cc2nc3c(-c4cc(C)ccc4OC)cccc3c(N)c2C1=O    0.2

(Q) Which measured Relative Potentiation for GABAA1 value corresponds to Cc1ccc(-c2cccc3c(N)c4c(nc23)CN(C2CC2)C4=O)c(F)n1 ?
(A) 0

(Q) Lookup CCCN1Cc2nc3c(-c4ccc(Cl)nc4C)cccc3c(N)c2C1=O
(A) 1.1

(Q) Lookup CCCN1Cc2nc3c(-c4cncc(OC)c4)cccc3c(N)c2C1=O
(A) 0.23

(Q) Lookup COc1ccc(F)cc1-c1c(F)ccc2c(N)c3c(nc12)CN(C1CC1)C3=O [Example 61]
(A) 0.08

(Q) Lookup Nc1c2c(nc3c(-c4cc(F)ccc4F)cccc13)CN(C1CC1)C2=O [Example 112]
(A) −0.034

(Q) Lookup COc1ncccc1-c1c(F)ccc2c(N)c3c(nc12)CN(C1CCOC1)C3=O (stereo not drawn)
(A) 0.097

(Q) Lookup CCCN1Cc2nc3c(-c4cncc(C#N)c4)cccc3c(N)c2C1=O
(A) 0.26

(Q) Lookup CCCN1Cc2nc3c(-c4cccc(OC)c4OC)cccc3c(N)c2C1=O
(A) 0.3

(Q) Lookup COc1cccc(C#N)c1-c1cccc2c(N)c3c(nc12)CN(C1CC1)C3=O [Example 139]
(A) −0.078

(Q) Lookup CCN1Cc2nc3c(-c4ccc(F)cc4F)c(F)ccc3c(N)c2C1=O
(A) −0.038

(Q) Lookup CCCCN1Cc2nc3c(-c4c(F)cccc4OC)cccc3c(N)c2C1=O
(A) 0.25

(Q) Lookup COc1cc(-c2cccc3c(N)c4c(nc23)CN(C2CCC2)C4=O)c(F)cn1
(A) 0.065

(Q) Lookup COc1ncccc1-c1cccc2c(N)c3c(nc12)CN(C1CC1)C3=O [Example 66]
(A) 0.056

(Q) Lookup CCCN1Cc2nc3c(-c4cc(C)nn4C)cccc3c(N)c2C1=O
(A) 0.49

(Q) Lookup CCCN1Cc2nc3c(-c4ccccc4C(F)(F)F)cccc3c(N)c2C1=O
(A) 0.48
